Below, each of the molecules is paired with its reported pIC50 value.
Target: PI3Kδ (p110δ/p85α) Recombinant Human Protein (Homo sapiens (Human), UniProt O00329)
Sequence (O00329 whole entry): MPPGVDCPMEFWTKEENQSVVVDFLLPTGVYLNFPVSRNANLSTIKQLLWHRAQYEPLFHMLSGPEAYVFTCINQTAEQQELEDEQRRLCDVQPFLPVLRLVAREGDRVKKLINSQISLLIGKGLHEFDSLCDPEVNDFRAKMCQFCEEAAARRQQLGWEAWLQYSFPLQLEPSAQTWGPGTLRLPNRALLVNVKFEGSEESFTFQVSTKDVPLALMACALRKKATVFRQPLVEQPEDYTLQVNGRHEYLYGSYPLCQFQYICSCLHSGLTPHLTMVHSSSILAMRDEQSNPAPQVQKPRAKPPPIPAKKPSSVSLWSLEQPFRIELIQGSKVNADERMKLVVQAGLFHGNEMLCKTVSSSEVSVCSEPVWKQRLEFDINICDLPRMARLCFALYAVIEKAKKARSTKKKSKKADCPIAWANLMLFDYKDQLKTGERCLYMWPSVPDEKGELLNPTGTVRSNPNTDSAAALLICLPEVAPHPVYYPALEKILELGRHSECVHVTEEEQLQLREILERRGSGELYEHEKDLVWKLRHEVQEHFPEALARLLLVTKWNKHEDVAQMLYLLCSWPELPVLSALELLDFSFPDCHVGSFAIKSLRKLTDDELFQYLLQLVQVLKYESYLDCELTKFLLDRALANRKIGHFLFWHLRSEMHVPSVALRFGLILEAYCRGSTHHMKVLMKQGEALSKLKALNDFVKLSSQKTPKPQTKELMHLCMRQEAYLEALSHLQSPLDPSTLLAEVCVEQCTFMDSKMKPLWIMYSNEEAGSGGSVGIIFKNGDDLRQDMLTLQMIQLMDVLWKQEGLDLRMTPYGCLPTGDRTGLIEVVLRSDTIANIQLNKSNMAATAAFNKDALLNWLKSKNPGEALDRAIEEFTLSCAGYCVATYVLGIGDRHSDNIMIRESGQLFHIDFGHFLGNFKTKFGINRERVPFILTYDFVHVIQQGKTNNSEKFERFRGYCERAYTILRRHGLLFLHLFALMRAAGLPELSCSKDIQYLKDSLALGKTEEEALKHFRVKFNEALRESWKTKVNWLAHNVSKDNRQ
Sequence (P27986 whole entry partner): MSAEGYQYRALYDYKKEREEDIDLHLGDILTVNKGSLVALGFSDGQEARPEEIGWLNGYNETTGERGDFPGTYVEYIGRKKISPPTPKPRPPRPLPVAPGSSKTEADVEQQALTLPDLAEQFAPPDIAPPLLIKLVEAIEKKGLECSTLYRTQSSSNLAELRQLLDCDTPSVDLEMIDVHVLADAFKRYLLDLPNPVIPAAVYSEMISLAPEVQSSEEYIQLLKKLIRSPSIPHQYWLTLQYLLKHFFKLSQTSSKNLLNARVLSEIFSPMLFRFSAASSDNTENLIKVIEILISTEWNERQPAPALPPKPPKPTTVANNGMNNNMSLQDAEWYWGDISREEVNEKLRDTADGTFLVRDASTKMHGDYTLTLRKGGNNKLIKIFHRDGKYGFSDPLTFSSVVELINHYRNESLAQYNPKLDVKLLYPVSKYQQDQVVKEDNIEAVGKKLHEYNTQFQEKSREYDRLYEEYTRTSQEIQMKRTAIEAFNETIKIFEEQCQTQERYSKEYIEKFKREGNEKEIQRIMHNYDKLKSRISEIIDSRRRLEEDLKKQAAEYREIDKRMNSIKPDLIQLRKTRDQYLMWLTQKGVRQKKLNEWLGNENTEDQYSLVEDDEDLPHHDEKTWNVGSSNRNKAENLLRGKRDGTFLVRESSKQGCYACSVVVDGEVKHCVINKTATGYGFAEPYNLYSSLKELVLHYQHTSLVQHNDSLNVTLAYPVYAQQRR
Assay: PI3Kδ Scintillation Proximity Assay
pIC50: −log10 of the molar value. Counter-ions that a name gives are not always drawn.

Examples with their reported pIC50 follow.
# Molecule, pIC50
measured = [
    ("CCOC(=O)C1CCCN(S(=O)(=O)c2ccc(C)c(-c3cnc4c(N)nc(C(F)(F)F)cn34)c2)C1 (stereo not shown) [Example 509]", "5.70 to 6.30"),
    ("Cc1ccc(S(=O)(=O)N[C@H]2CC[C@H](O)CC2)cc1-c1cnc2c(N)nc(-c3cccnc3)cn12 [Example 26]", "> 7.00"),
    ("Cc1ccc(S(=O)(=O)N[C@H]2CC[C@](C)(O)CC2)cc1-c1cnc2c(N)nc(C(F)(F)F)nn12 [Example 327, trifluoroacetate salt]", "6.30 to 7.00"),
    ("COCC1(N(C)S(=O)(=O)c2ccc(C)c(-c3cnc4c(N)ncnn34)c2)CC1 [Example 177]", "5.70 to 6.30"),
    ("Cc1cn2c(-c3ccc(F)c(S(=O)(=O)NC45CC(C#N)(C4)C5)c3)cnc2c(N)n1 [Example 382, trifluoroacetate salt]", "5.70 to 6.30"),
    ("Cc1c(F)cc(S(=O)(=O)N[C@H]2CC[C@H](CC#N)OC2)cc1-c1cnc2c(N)nc(C(F)(F)F)nn12 [Example 466]", "> 7.00"),
]

Reported pIC50 for Cc1ccc(S(=O)(=O)NC23CC(C(F)F)(C2)C3)cc1-c1cnc2c(N)nc(C(F)(F)F)cn12 [Example 278, trifluoroacetate salt] was 6.30 to 7.00

Reported pIC50 for Cc1ccc(S(=O)(=O)N2CC3(CC(O)C3)C2)cc1-c1cnc2c(N)nc(C(F)(F)F)cn12 [Example 297] was 5.70 to 6.30

Reported pIC50 for Cc1cc(C)c(S(=O)(=O)NC23CCC(CO)(C2)C3)cc1-c1cnc2c(N)nc(C(F)(F)F)cn12 [Example 400, trifluoroacetate salt] was > 7.00

Reported pIC50 for Cc1ccc(S(=O)(=O)N2C3CCC2CC(N2CCOCC2)C3)cc1-c1cnc2c(N)ncnn12 (stereo not shown) [Example 169] was < 5.70

* * *

Tested on: Phosphorylated Ribosomal Protein S6 (RPS6)
Test: THP-1 RPS6 ELISA Assay
Assay type: cell-based, Human
Conditions: THP-1 cells; read-out: PI3Kγ_THP1_RPS6_ELISA IC50
pIC50: −log10 of the molar value. Where a name gives a salt, the structure may show the parent alone.
Below, each of the compounds is paired with its reported pIC50 value.

Reported pIC50 for Cc1ccc(S(=O)(=O)NC2CN(CCO)C2)cc1-c1cnc2c(N)nc(C(F)(F)F)nn12 [Example 329, trifluoroacetate salt] was 6.30 to 7.00

Reported pIC50 for Cc1ccc(S(=O)(=O)NCC2(C#N)CC2)cc1-c1cnc2c(N)ncnn12 [Example 101, trifluoroacetate salt] was < 6.00

Reported pIC50 for Nc1nc(C(F)(F)F)nn2c(-c3ccc(F)c(S(=O)(=O)NC45CCC(CO)(C4)C5)c3)cnc12 was < 6.00

Reported pIC50 for Cc1ccc(S(=O)(=O)NC23CC(C)(C2)C3)cc1-c1cnc2c(N)ncnn12 was 6.30 to 7.00

Reported pIC50 for Cc1ccc(S(=O)(=O)NC2CN(C3COC3)C2)cc1-c1cnc2c(N)nc(C(F)(F)F)nn12 [Example 337, trifluoroacetate salt] was 6.30 to 7.00

Reported pIC50 for Cc1ccc(S(=O)(=O)N[C@H]2CC[C@@](C)(O)CC2)cc1-c1cnc2c(N)ncnn12 was < 6.00

* * *

Below, each of the molecules is paired with its reported IC50 value.
Molecular target: PI3Kδ (p110δ/p85α) Recombinant Human Protein (Homo sapiens (Human))
Assay: PI3Kδ Scintillation Proximity Assay
Counter-ions that a name gives are not always drawn.

Examples with their reported IC50 follow.
# Molecule, IC50
rows = [
    ("Cc1ccc(S(=O)(=O)N2CCCC(C#N)C2)cc1-c1cnc2c(N)nc(C(F)(F)F)cn12 (stereo not shown)", "100 to 500 nM"),
    ("Cc1ccc(S(=O)(=O)NC2CN(C)C2)cc1-c1cnc2c(N)nc(C(F)(F)F)nn12", "100 to 500 nM"),
    ("Cc1ccc(S(=O)(=O)N[C@H]2CC[C@H](O)CC2)cc1-c1cnc2c(N)cc(-c3cnn(C)c3)cn12 [Example 8, bis(trifluoroacetate)]", "100 to 500 nM"),
    ("Cc1ccc(S(=O)(=O)N2CCCC(CNC(=O)OC(C)(C)C)C2)cc1-c1cnc2c(N)nc(C(F)(F)F)cn12 (stereo not shown)", "> 2000 nM"),
    ("Cc1ccc(S(=O)(=O)NC23CCC(C(O)C(F)(F)F)(CC2)OC3)cc1-c1cnc2c(N)ncnn12 (racemic)", "100 to 500 nM"),
]

Reported IC50 for Cc1ccc(S(=O)(=O)NC23CCC(O)(CC2)CC3)cc1-c1cnc2c(N)ncnn12 was 100 to 500 nM

Reported IC50 for CCc1cn2c(-c3cc(S(=O)(=O)N[C@H]4CC[C@H](O)CC4)ccc3C)cnc2c(N)n1 was < 100 nM

Reported IC50 for Cc1ccc(S(=O)(=O)N[C@H]2CC[C@](O)(C(F)(F)F)CC2)cc1-c1cnc2c(N)ncnn12 was 100 to 500 nM

Reported IC50 for Cc1cn2c(-c3ccc(F)c(S(=O)(=O)NC45CCC(C#N)(C4)C5)c3)cnc2c(N)n1 [Example 380, trifluoroacetate salt] was 500 to 2000 nM

Reported IC50 for Cc1ccc(S(=O)(=O)NC23CC(Cn4ccnc4)(C2)C3)cc1-c1cnc2c(N)nc(C(F)(F)F)cn12 [Example 284, trifluoroacetate salt] was 100 to 500 nM

* * *

Test system: Phosphorylated Ribosomal Protein S6 (RPS6)
Test: THP-1 RPS6 ELISA Assay
Assay type: cell-based, Human
Conditions: THP-1 cells; read-out: PI3Kγ_THP1_RPS6_ELISA IC50
Description: To measure the Phosphorylated Ribosomal Protein S6 (RPS6) in cell lysates, THP-1 cells (Human Acute Monocytic Leukemia) are purchased from ATCC (Manassas, Va.) and maintained in RPMI with 10% FBS (Gibco/Life Technologies, Carlsbad, Calif.). […] The plate is measured using a microplate reader (SpectraMax M5 —Molecular Devices, LLC Sunnyvale, Calif.) set to 450 nm with a wavelength correction of 540. […]
pIC50: −log10 of the molar value. Counter-ions that a name gives are not always drawn.
Value kind: pIC50

# Compound, Target desc, Result
measured = [
    ("N#CC12CCC(NS(=O)(=O)c3cc(-c4cnc5c(N)nc(C(F)(F)F)nn45)ccc3F)(C1)C2 [Example 417, trifluoroacetate salt]", "Phosphorylated Ribosomal Protein S6 (RPS6)", "6.00 to 6.30"),
]

Reported pIC50 for Cc1ccc(S(=O)(=O)N[C@H]2C[C@](O)(C(F)(F)F)C2)cc1-c1cnc2c(N)ncnn12 was 6.30 to 7.00

Reported pIC50 for Cc1ccc(S(=O)(=O)N[C@H]2CC[C@](C)(O)CC2)cc1-c1cnc2c(N)nc(C(F)(F)F)nn12 [Example 327, trifluoroacetate salt] was 6.30 to 7.00

* * *

Target: PI3Kδ (p110δ/p85α) Recombinant Human Protein (Homo sapiens (Human), UniProt O00329)
Experiment: PI3Kδ Scintillation Proximity Assay
Type: biochemical
Structures can show the parent of a compound that is named as a salt.
Below, each of the molecules is paired with its reported IC50 value.

# Molecule, IC50
records = [
    ("Cc1cc(F)c(S(=O)(=O)N[C@H]2CC[C@H](CC#N)OC2)cc1-c1cnc2c(N)nc(C(F)(F)F)cn12 [Example 405, trifluoroacetate salt]", "100 to 500 nM"),
    ("C[C@]1(O)CC[C@H](NS(=O)(=O)c2cc(-c3cnc4c(N)nc(-c5ccc(CO)cc5F)cn34)ccc2F)CC1", "< 100 nM"),
    ("Cc1ccc(S(=O)(=O)N2CCCC(N)C2)cc1-c1cnc2c(N)nc(C(F)(F)F)cn12 (stereo not drawn) [Example 516, trifluoroacetate]", "< 100 nM"),
    ("Cc1ccc(S(=O)(=O)N(CCC#N)C2CCCCC2)cc1-c1cnc2c(N)ncnn12", "> 2000 nM"),
    ("Cc1ccc(S(=O)(=O)NC2CC2)cc1-c1cnc2c(N)ncnn12", "> 2000 nM"),
]

Reported IC50 for Cc1ccc(S(=O)(=O)CC2CC2)cc1-c1cnc2c(N)ncnn12 was 500 to 2000 nM

Reported IC50 for CC(C)(O)CNS(=O)(=O)c1ccc(C(F)(F)F)c(-c2cnc3c(N)nc(C(F)(F)F)cn23)c1 was > 2000 nM

Reported IC50 for Cc1ccc(S(=O)(=O)NC23CC(Cn4cncn4)(C2)C3)cc1-c1cnc2c(N)ncnn12 [Example 113, trifluoroacetate salt] was 500 to 2000 nM

Reported IC50 for Cc1cn2c(-c3cc(S(=O)(=O)N[C@@H]4CC[C@@H](C(C)(C)O)OC4)c(C)cc3C)cnc2c(N)n1 was 500 to 2000 nM
